Measured values drawn from paper PMC10786891 for this set.

- Target desc: T1, EsCas13d, nuclease-dead (Eubacterium siraeum, UniProt B0MS50, R295A;H300A;R849A;H854A)
- T1 sequence: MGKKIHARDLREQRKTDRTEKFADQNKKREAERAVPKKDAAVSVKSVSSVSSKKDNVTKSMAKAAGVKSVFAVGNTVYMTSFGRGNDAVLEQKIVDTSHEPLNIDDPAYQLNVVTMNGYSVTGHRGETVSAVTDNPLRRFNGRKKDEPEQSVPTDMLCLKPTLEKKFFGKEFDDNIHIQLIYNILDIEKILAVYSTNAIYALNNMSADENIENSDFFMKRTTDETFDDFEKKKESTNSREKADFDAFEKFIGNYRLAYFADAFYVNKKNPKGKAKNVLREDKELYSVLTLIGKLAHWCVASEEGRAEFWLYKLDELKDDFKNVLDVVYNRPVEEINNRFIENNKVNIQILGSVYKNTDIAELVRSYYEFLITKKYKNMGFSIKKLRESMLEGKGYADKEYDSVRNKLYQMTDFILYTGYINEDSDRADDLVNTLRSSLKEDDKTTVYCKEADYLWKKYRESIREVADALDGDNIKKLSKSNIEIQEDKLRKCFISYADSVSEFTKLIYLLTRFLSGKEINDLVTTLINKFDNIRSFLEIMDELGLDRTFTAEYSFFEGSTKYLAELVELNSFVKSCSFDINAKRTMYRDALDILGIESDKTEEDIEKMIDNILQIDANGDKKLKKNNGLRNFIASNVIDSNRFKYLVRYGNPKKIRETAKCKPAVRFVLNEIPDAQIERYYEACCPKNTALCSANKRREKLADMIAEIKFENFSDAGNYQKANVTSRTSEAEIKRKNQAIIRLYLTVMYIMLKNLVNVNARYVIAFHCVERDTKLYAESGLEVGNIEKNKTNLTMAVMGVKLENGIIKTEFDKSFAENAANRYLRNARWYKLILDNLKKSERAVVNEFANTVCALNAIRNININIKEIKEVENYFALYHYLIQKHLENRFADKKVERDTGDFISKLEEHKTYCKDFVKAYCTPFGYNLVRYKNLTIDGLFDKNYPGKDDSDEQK
- Method description: crRNA (strand 1, pre-loaded); Mg2+; 40 mM Tris-HCl pH 7.5, 150 mM NaCl, 6 mM MgCl2, 1 mM DTT, 0.1% Tween-20, 0.2 mg/ml BSA; 25 C; 10 min per concentration, then washed
- Condition description: tags: His6-TwinStrep-SUMO cleaved; N-terminal SNAP kept (SNAP-Surface 488); label: 3' end held by stalled T7 RNA polymerase
pKd: −log10 of the molar value.
Each entry below carries its reported pKd.

[
  {
    "Binder": "target 1 insU 3' of 20,insC 3' of 14 (mixed) RNA 1: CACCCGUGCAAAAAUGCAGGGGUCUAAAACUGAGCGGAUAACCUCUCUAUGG RNA 2: GGGAAUGGAUCCACAUCUACGAAUUCGUACCAUUAGAGACGGUUAUCCGCUCACCGAGAUCGGAAGAGCACACGU",
    "pKd": 7.29
  },
  {
    "Binder": "target 1 insU 3' of 21,insC 3' of 10 (mixed) RNA 1: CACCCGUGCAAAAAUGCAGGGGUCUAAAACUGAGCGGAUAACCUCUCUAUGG RNA 2: GGGAAUGGAUCCACAUCUACGAAUUCGUACCUAUAGAGAGGUUCAUCCGCUCACCGAGAUCGGAAGAGCACACGU",
    "pKd": 7.29
  },
  {
    "Binder": "target 2 MT 5'PFS GUG 3'PFS CGG (mixed) RNA 1: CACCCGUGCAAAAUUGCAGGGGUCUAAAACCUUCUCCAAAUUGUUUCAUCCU RNA 2: GGGAAUGGAUCCACAUCUACGAAUUCGUGAGGAUGAAACAAUUUGGAGAAGCGGAGAUCGGAAGAGCACACGU",
    "pKd": 7.90
  }
]
